// provenance: patent US10766952B2

Listed here: items and their measured α-rat koff.
# measured.target: T1, rat α-CGRP (Rattus norvegicus, UniProt P01256)
# T1 construct: rat α (1-37); host or cells: synthetic peptide
# T1 sequence (P01256 83-119 limits assumed): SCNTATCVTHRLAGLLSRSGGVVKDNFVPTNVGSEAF
# experiment.notes: Biacore affinity of antibody G1 Fab and variants to rat α-CGRP
# Format: binding
# protocol.conditions: 37° C., Fab, screening mode unless underlined
Write down the numeric answer in s⁻¹ and omit the unit.

Guide cases for α-rat koff, answers given:
M61: G1 variant: L1 R28N,T30G; L2 A51H; H2 E54Q,A57N,H61F; HC-FW3 L99T,A100V (antibody, V domains shown) VH: EVQLVESGGGLVQPGGSLRLSCAASGFTFSNYWISWVRQAPGKGLEWVAEIRSQSDNSATFYAEAVKGRFTISRDNAKNSLYLQMNSLRAEDTAVYYCTVYFDYGLAIQNYWGQGTLVTVSS VL: EIVLTQSPATLSLSPGERATLSCKASKNVGTYVSWYQQKPGQAPRLLIYGHSNRYLGIPARFSGSGSGTDFTLTISSLEPEDFAVYYCSQSYNYPYTFGQGTKLEIK	0.00521
M46: G1 variant: L1 R28N; L2 G50A,L56T; H2 E54K,A57N,S58E,H61F; HC-FW3 L99T,A100V (antibody, V domains shown) VH: EVQLVESGGGLVQPGGSLRLSCAASGFTFSNYWISWVRQAPGKGLEWVAEIRSKSDNEATFYAEAVKGRFTISRDNAKNSLYLQMNSLRAEDTAVYYCTVYFDYGLAIQNYWGQGTLVTVSS VL: EIVLTQSPATLSLSPGERATLSCKASKNVTTYVSWYQQKPGQAPRLLIYAASNRYTGIPARFSGSGSGTDFTLTISSLEPEDFAVYYCSQSYNYPYTFGQGTKLEIK	0.00294
M74: G1 variant: L1 R28N,T30G; L2 L56S; H2 E54K,A57S; HC-FW3 L99T,A100V (antibody, V domains shown) VH: EVQLVESGGGLVQPGGSLRLSCAASGFTFSNYWISWVRQAPGKGLEWVAEIRSKSDSSATHYAEAVKGRFTISRDNAKNSLYLQMNSLRAEDTAVYYCTVYFDYGLAIQNYWGQGTLVTVSS VL: EIVLTQSPATLSLSPGERATLSCKASKNVGTYVSWYQQKPGQAPRLLIYGASNRYSGIPARFSGSGSGTDFTLTISSLEPEDFAVYYCSQSYNYPYTFGQGTKLEIK	0.00603

Next molecule, α-rat koff to be filled in.
Which value of α-rat koff has been reported for M44: G1 variant: L1 R28N; L2 G50A,L56T; H2 E54K,A57N,S58E; HC-FW3 L99T,A100V (antibody, V domains shown) VH: EVQLVESGGGLVQPGGSLRLSCAASGFTFSNYWISWVRQAPGKGLEWVAEIRSKSDNEATHYAEAVKGRFTISRDNAKNSLYLQMNSLRAEDTAVYYCTVYFDYGLAIQNYWGQGTLVTVSS VL: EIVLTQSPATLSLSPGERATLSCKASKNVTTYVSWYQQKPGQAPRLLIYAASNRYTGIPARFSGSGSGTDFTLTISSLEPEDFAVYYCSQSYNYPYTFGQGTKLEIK in the records?
0.00613
